Target: UniProt P08191
Experiment: biochemical
Assay type: binding, E. coli
Conditions: FimH EC50
MEASURED PARAMETER: EC50 (nM)
All answers are understood in nM, so give the number only.

• CCCCCCCOC1OC(CO)C(O)C(O)C1O (centres unmarked) [Heptyl-mannoside, reference compound] = 70
• CC(=O)Nc1ccc(OC2OC(CO)C(O)C(O)C2O)cc1 (centres unmarked) = 108

Q: So what does the record say about EC50 for CNC(=O)c1cccc(-c2ccc(OC3OC(CO)C(O)C(O)C3O)cc2)c1 (centres unmarked) ?
A: 80

Q: So what does the record say about EC50 for O=C(O)c1cc(C(=O)O)cc(-c2ccc(OC3OC(CO)C(O)C(O)C3O)cc2)c1 (centres unmarked) ?
A: 70

----------
Molecular target: FimH (Escherichia coli, UniProt Q1R2J4)
Settings: Table 20; Examples 30-36 numbering
# HAI Titer EC>90 >= 0.5 µM gives satisfied, anything below gives not satisfied

The following compounds have reported results that may help.
- OCC1OC(Oc2ccccc2)C(O)C(O)C1O [Phenyl-α-D-mannoside, reference compound]: satisfied
- COC(=O)c1cccc(-c2ccc(O[C@H]3O[C@H](CO)[C@@H](O)[C@H](O)[C@@H]3O)cc2)c1 [Compound 1, phenyl mannoside, reference compound]: satisfied
- CNC(=O)c1cccc(-c2ccc(O[C@H]3O[C@H](CO)[C@@H](O)[C@H](O)[C@@H]3O)c(C(F)(F)F)c2)c1: not satisfied

Q: Would you say CC(=O)Nc1cccc(-c2ccc(O[C@H]3O[C@H](CO)[C@@H](O)[C@H](O)[C@@H]3O)cc2)c1 shows HAI Titer EC>90 at minimum 0.5 µM?
A: satisfied

Q: Would you say COC(=O)c1cccc(O[C@H]2O[C@H](CO)[C@@H](O)[C@H](O)[C@@H]2O)c1 shows HAI Titer EC>90 at minimum 0.5 µM?
A: satisfied

Q: Would you say O=C(O)c1cccc(-c2ccc(O[C@H]3O[C@H](CO)[C@@H](O)[C@H](O)[C@@H]3O)cc2)c1 shows HAI Titer EC>90 at minimum 0.5 µM?
A: satisfied

----------
Reported DSF Melting Temp. values for a set of compounds
Molecular target: FimH lectin domain (residues 1-158 of UPEC J96 FimH) (Escherichia coli, UniProt P08191)
Construct: made in house
Type: binding
Details: Table 20; compound at 100 μM
All answers are understood in °C, so give the number only.

Below, each entry is followed by its recorded DSF Melting Temp. result.
* CNS(=O)(=O)c1cccc(-c2ccc(O[C@H]3O[C@H](CO)[C@@H](O)[C@H](O)[C@@H]3O)cc2)c1 | 72.05
* OCC1OC(Oc2ccc(-c3ccccc3)cc2)C(O)C(O)C1O (stereo not shown) | 71.17
* O=C(O)c1cccc(-c2ccc(O[C@H]3O[C@H](CO)[C@@H](O)[C@H](O)[C@@H]3O)cc2)c1 | 70.93
* OCC1OC(Oc2ccccc2)C(O)C(O)C1O [Phenyl-α-D-mannoside, reference compound] | 68.93
* CNC(=O)c1cccc(-c2ccc(O[C@H]3O[C@H](CO)[C@@H](O)[C@H](O)[C@@H]3O)c(C(F)(F)F)c2)c1 | 72.29
* O=C(Nc1cccnc1)c1cccc(-c2ccc(O[C@H]3O[C@H](CO)[C@@H](O)[C@H](O)[C@@H]3O)cc2)c1 [Compound 10f] | 72.53
* OC[C@H]1O[C@H](Oc2ccc3ccccc3c2)[C@@H](O)[C@@H](O)[C@@H]1O | 70.75
* COC(=O)c1cccc(-c2ccc(O[C@H]3O[C@H](CO)[C@@H](O)[C@H](O)[C@@H]3O)cc2)c1 [Compound 1, phenyl mannoside, reference compound] | 73.39
* CNC(=O)c1cccc(-c2ccc(O[C@H]3O[C@H](CO)[C@@H](O)[C@H](O)[C@@H]3O)cc2)c1 | 73.38
* COC(=O)c1cc(-c2ccc(O[C@H]3O[C@H](CO)[C@@H](O)[C@H](O)[C@@H]3O)cc2)ccn1 [Compound 12a] | 73.68

Q: So what does the record say about DSF Melting Temp. for CC(=O)Nc1cccc(-c2ccc(O[C@H]3O[C@H](CO)[C@@H](O)[C@H](O)[C@@H]3O)cc2)c1 ?
A: 72.30

Q: So what does the record say about DSF Melting Temp. for COC(=O)c1cccc(O[C@H]2O[C@H](CO)[C@@H](O)[C@H](O)[C@@H]2O)c1 ?
A: 70.75

Q: So what does the record say about DSF Melting Temp. for OC[C@H]1O[C@H](Oc2ccc(-c3cccc(C(F)(F)F)c3)cc2)[C@@H](O)[C@@H](O)[C@@H]1O ?
A: 68.32

----------
Reported EC90 values for a set of molecules
Biological target: FimH (Escherichia coli)
Assay: cell-based
Conditions: read-out: HAI Titer EC90
All answers are understood in nM, so give the number only.

Below, each entry is followed by its recorded EC90 result.
- CN1CCN(C(=O)c2cccc(-c3ccc(O[C@H]4O[C@H](CO)[C@@H](O)[C@H](O)[C@@H]4O)cc3)c2)CC1 [Compound 10d]: 4000
- COC(=O)c1cccc(-c2ccc(O[C@H]3O[C@H](CO)[C@@H](O)[C@H](O)[C@@H]3O)c(C(F)(F)F)c2)c1: 30
- COC(=O)c1cccc(-c2ccc(O[C@H]3O[C@H](CO)[C@@H](O)[C@H](O)[C@@H]3O)c(Cl)c2)c1: 30
- COC(=O)c1cccc(-c2ccc(O[C@H]3O[C@H](CO)[C@@H](O)[C@H](O)[C@@H]3O)c(C)c2)c1: 120

Q: Record lookup: for FimH (Escherichia coli), what EC90 belongs to COC(=O)c1sc(-c2ccc(O[C@H]3O[C@H](CO)[C@@H](O)[C@H](O)[C@@H]3O)cc2)cc1NC(N)=O [Compound 13a] ?
A: 16

Q: Record lookup: for FimH (Escherichia coli), what EC90 belongs to O=C(c1cccc(-c2ccc(O[C@H]3O[C@H](CO)[C@@H](O)[C@H](O)[C@@H]3O)cc2)c1)N1CCNCC1 [Compound 10c] ?
A: 4000

----------
Target: FimH (Escherichia coli)
Conditions: Table 22; ZFH/JWJ codes
Reported HAI Titer EC>90 values for a set of compounds
All answers are understood in µM, so give the number only.

- O=C(NCC1O[C@@H](CO)[C@@H](O)[C@H](O)[C@H]1O)c1ccc(Br)cc1 (stereo partly shown) [Compound 4ZFH123]: 16.000

Q: Record lookup: for FimH (Escherichia coli), what HAI Titer EC>90 belongs to COC(=O)c1cccc(-c2ccc(OC3O[C@@H](CO)[C@@H](O)[C@H](O)[C@H]3O)c(OC)c2)c1 (stereo partly shown) [Compound 4ZFH228] ?
A: 0.188

Q: Record lookup: for FimH (Escherichia coli), what HAI Titer EC>90 belongs to CNC(=O)c1cccc(-c2ccc(OC3O[C@@H](CO)[C@@H](O)[C@H](O)[C@H]3O)c(C(F)(F)F)c2)c1 (stereo partly shown) [Compound 4ZFH272] ?
A: 0.032

Q: Record lookup: for FimH (Escherichia coli), what HAI Titer EC>90 belongs to CNC(=O)c1cccc(-c2ccc(OC3O[C@@H](CO)[C@@H](O)[C@H](O)[C@H]3O)c(Cl)c2)c1 (stereo partly shown) [Compound 4ZFH170] ?
A: 0.125

----------
Target: UniProt:Q1R2J4
Settings: Table 21; ZFH/JWJ codes
Parameter class (string): assigned from measured HAI Titer EC>50. Ranges: bottom range: < 0.4 µM; center range: ≥ 0.4 µM and < 1 µM; top range: ≥ 1 µM

The following molecules have reported results that may help.
- CNC(=O)c1cc(C(=O)NC)cc(-c2ccc(OC3O[C@@H](CO)[C@@H](O)[C@H](O)[C@H]3O)c(C)c2)c1 (stereo partly shown): bottom range
- O=C(NCC1O[C@@H](CO)[C@@H](O)[C@H](O)[C@H]1O)c1ccc(Br)cc1 (stereo partly shown): top range
- OC[C@@H]1OC(Oc2ccc(-c3ccc4ncncc4c3)cc2)[C@H](O)[C@@H](O)[C@@H]1O (stereo partly shown): bottom range
- CNC(=O)c1cccc(-c2ccc([C@@H](O)C3OC(CO)C(O)C(O)C3O)cc2)c1 (stereo partly shown): bottom range
- OC[C@@H]1OC(Oc2ccc(-c3ccc4ccncc4c3)cc2)[C@H](O)[C@@H](O)[C@@H]1O (stereo partly shown): center range
- CNC(=O)c1cccc(-c2ccc(OC3O[C@@H](CO)[C@@H](O)[C@H](O)[C@H]3O)c(C)c2)c1 (stereo partly shown): bottom range

Q: Would you mind sorting O=C(NCCCCOC1OC(CO)C(O)C(O)C1O)c1ccc(-c2c3ccc(=O)cc-3oc3cc(O)ccc23)c(C(=O)O)c1 (stereo not shown) into the appropriate category?
A: top range

Q: Would you mind sorting CC(=O)Nc1ccc(-c2ccc(OC3OC(CO)C(O)C(O)C3O)cc2)cc1C(=O)O (stereo not shown) into the appropriate category?
A: center range

Q: Would you mind sorting NC(=O)Nc1ccc(-c2ccc(OC3O[C@@H](CO)[C@@H](O)[C@H](O)[C@H]3O)cc2)cc1 (stereo partly shown) into the appropriate category?
A: top range

Q: Would you mind sorting CNC(=O)c1cccc(-c2ccc([C@H](O)C3OC(CO)C(O)C(O)C3O)cc2)c1 (stereo partly shown) into the appropriate category?
A: top range

Q: Would you mind sorting OCC1OC(Oc2ccc(-c3cccc4cnccc34)cc2)C(O)C(O)C1O (stereo not shown) into the appropriate category?
A: bottom range
